- study system: recombinant human KLK5 (human) (UniProt Q9Y337)
- Sequence (Q9Y337 67-293): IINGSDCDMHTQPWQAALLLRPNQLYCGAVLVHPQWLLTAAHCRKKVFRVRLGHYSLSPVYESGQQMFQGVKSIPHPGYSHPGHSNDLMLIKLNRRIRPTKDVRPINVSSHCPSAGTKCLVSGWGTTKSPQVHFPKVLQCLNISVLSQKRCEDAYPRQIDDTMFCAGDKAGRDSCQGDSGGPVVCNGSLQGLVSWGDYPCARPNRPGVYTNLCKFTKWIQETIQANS
- protocol notes: pro-KLK1 coupled assay, 0.5 nM KLK5
pIC50: −log10 of the molar value.
assay readout: pIC50

binder	reported value
9F2 (antibody, V domains shown) VH: QSVKESEGGLFKPTDNLTLTCTVSGFSLSSYGVSWVRQAPGNGLEYIGFIGSGGSPYYASWAKSRSTITRNTNLNTVTLKMTSLTAADTATYFCARDDVGGGKSLDIWGPGTLVTVSS VL: NIVMTQTPASVEVAVGGTVIIKCQASQSISNYLSWYHQKSGQRPRLLIYSASTLASGVPSRFKGSGSGTQFTLTISDLECADAATYYCHQDYTSNSVDNTFGGGTEVVVK	9.86
2B11 (antibody, V domains shown) VH: QSVKESEGGLFKPTDTLTLTCTVSGFSLINYGVSWVRQAPGKGLEWIGYIGSAGSTYYATWAKSRATITRNTNLNTVTLKMTSLTAADTATYFCARAAYSAGSADAEDIWGPGTLVTVSS VL: AYYMTQTPASVEAAVGGTVTIKCQASQSISNYVAWYQQKPGQPPKLLIYRASTLASGVSSRFSGSGSGTEFTLTISDLECADAATYYCHQGYSSSNVDNIFGGGTEVVVK	9.77
9H3 (antibody, V domains shown) VH: QSVKESEGGLFKPTDTLTLTCTVSGFSLSGYGVSWVRQAPGKGLEYIGFIGSGGSAYYASWAKSRSTITRNTNLNTVTLKMTRLTAADTATYFCARDNVGGDMSLDIWGPGTLVTVSS VL: DIVMTQTPASVSEPVGGTVTIKCQASQNINNYLSWYQQKPGQPPKQLIYAASTLASGVPSRFKGSGSGTQFTLTISDLECADAATYYCHQDYTSNNVDNTFGGGTEVVVK	9.92
